- TARGET_DESC: JAK3 (Homo sapiens)
- Sequence (P52333 1-1124): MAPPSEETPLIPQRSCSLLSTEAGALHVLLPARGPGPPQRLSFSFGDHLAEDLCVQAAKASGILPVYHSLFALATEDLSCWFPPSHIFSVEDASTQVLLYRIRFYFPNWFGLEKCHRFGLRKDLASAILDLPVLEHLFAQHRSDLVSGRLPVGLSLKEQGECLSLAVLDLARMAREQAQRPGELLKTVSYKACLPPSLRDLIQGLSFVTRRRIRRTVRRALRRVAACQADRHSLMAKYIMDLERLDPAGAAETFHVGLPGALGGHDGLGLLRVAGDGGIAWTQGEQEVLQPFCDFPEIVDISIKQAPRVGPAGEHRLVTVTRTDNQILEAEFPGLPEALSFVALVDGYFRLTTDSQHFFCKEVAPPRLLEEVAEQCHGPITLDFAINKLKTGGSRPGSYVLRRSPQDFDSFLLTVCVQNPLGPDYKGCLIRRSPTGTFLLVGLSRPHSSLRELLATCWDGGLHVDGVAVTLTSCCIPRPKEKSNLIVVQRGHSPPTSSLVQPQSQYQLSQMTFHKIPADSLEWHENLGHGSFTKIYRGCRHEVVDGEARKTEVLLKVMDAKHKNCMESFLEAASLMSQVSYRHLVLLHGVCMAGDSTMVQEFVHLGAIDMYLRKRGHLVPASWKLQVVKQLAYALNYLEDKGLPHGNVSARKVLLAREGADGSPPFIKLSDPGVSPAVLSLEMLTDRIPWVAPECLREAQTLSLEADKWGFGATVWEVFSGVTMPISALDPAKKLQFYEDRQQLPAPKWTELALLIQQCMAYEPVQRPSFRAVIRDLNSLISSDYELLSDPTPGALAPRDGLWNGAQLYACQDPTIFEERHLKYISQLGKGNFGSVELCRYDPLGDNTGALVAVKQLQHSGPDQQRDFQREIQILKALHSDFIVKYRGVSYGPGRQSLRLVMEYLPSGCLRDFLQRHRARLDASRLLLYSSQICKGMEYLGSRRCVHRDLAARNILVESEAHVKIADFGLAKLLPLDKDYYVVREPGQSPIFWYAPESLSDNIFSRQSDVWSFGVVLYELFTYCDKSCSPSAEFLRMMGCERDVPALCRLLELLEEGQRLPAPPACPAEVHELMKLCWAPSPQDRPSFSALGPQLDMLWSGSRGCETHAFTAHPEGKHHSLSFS
- PROCEDURE_TEXT: JAK3 IL-2-NK-92/pSTAT5 cell-based assay (Cellomics ArrayScan HCS)
- Parameters: host or cells: NK-92 (natural killer) cells
- RUN_CONDITIONS: NK-92 cells, IL-2 at 0.5 ng/mL, relative IC50, n=61; read-out: IC50, inhibits JAK3 (pSTAT5)
READOUT: pIC50
Note on units: pIC50 is unitless, being -log10 of a concentration expressed in mol/L.

Prompt: Name the reported pIC50 value associated with the molecule Cc1cc(Nc2ccc3ncn([C@@H]4CCc5ccc(F)cc54)c3n2)[nH]n1.Cl.Cl [Example 1, dihydrochloride]
Response: 6.64
